assay: yeast display, Sf9 membrane polyspecificity reagent, FACS + sequencing; frameworks hold sequencing errors
quantity: polyreactivity (PSR sort gate)

Worked cases, polyreactivity (PSR sort gate) given:
[
  {
    "sequence": "QVQLVESGGGLVQAGGSLRLSCAASGSTFFSYDMGWYRQAPGKERELVATISTSVGRTYYADSVKGRFTISRDNAKNTVYLLMNSLKPEDTAVYYCNSDSLGYLYNYYWPAYDHWGQGTQVTVSS",
    "polyreactivity (PSR sort gate)": "low polyreactivity"
  },
  {
    "sequence": "QDQLVESGGGLVQAGGSLRISCAASGSTFPLYAMGWYRQAPGKEMEFVAAIRWIGGSTYYADSVKGRFTISRDNAMNTVYLQMNSLKPEDTAVYYCAADYVVSAFDYWGQGTQVTVSS",
    "polyreactivity (PSR sort gate)": "low polyreactivity"
  },
  {
    "sequence": "QVQLVESGGGLVQAGGSLRLSCAASGIIFTIYTMGWYRQAPGKERELVAAITRSGGSTYYADSVKGRFTISRDNAKNTVYLQMNSLKPEDTAVYYCAAEWQYPDGDDVGSWRYYYWGQGTQVTVSS",
    "polyreactivity (PSR sort gate)": "high polyreactivity"
  },
  {
    "sequence": "QVQLVESGGGLVQAGGSLRLSCAASGIIFPGYAMGWYRQAPGKVRELVAAISSGGDTYYADSVKGLFTISRDNAKNTVYLQMNSLNPEDTAVYYCTAAQLSSDRTSTYGYWGQGTKVTVSS",
    "polyreactivity (PSR sort gate)": "low polyreactivity"
  },
  {
    "sequence": "QVQLVESGGGLVQAGGSLRLSCAASGSIFTWYVMGWYRQAPGKERELVAAITSGGRTYYADSVKGRFTISRDNAKKTVYLQMNSLKPEDTAVYYCAADSIGRLWGYGYWGQGTQVTVSS",
    "polyreactivity (PSR sort gate)": "high polyreactivity"
  }
]

Form field polyreactivity (PSR sort gate), entry QVQLVESGGGLVQAGGSLRLSCAASGFIFFANAMGWYRQAPGKESELVADITWSGGTTYYADSVKGRFTISRDNAKNTVYLQMNSLKPEDTAVYYCAARGWASTWYYYWGQGTQVTVSS : high polyreactivity

* * *

assay: yeast display, Sf9 membrane polyspecificity reagent, FACS + sequencing; frameworks hold sequencing errors
quantity: polyreactivity (PSR sort gate)

Known polyreactivity (PSR sort gate) results, listed for orientation:
[
  {
    "sequence": "QVQLVESGGGLVQAGGSLRLSCAASGSTFYRNAMGWYRQAPGKERELVAAISTSGGSTYYADSVKGRFTISRDNAKNTVYLQMNSLKPEDTAVYYCATDSYYFDVMYGWKEYDYWGQGTQVTVSS",
    "polyreactivity (PSR sort gate)": "high polyreactivity"
  },
  {
    "sequence": "QVQLVESGGGLVQAGCSLRLSCAASGRIFYRNAMGWYRQAPGKERELVAGITRGGSTNYADSVKGRFTISRDNAKNNVYLQLNSLKPEDTAVYYCAKAIPAKFYSEAGYDYWGQGTQVTVSS",
    "polyreactivity (PSR sort gate)": "low polyreactivity"
  },
  {
    "sequence": "QVQLVESGGGLVQAGGSLRLSSAASGRIFAYNAMGWYRQAPGKEREFVAAITLGTGRTYYADSVKGRFTISRDNAKNTDYLQMNSLKAEDTAVYYCAARRVRGDVDYWYIYDYWGQGTQVTVSS",
    "polyreactivity (PSR sort gate)": "high polyreactivity"
  },
  {
    "sequence": "QVQLVESGGGLVQAGGSLRLSCAASGRIFNYYAMGWYRQAPGKERELVAVISRTGVRTHYADSVKGRFTISRDIAKNTVYLQMNRLKPEDTAVDYCNADSYVFRYDYWGQGSQVTVSS",
    "polyreactivity (PSR sort gate)": "high polyreactivity"
  },
  {
    "sequence": "QVQLVESGGGLVQAGGSLRLSCAASGSIFITYAMVWSRQAPGKERELVAAIRDSGDRTYYADSVKGRFTISRDNAKNTVYLQMNSLKPEDTAVYYCAADYFVQVPDYYYASEYGYWGQGTQVTVSS",
    "polyreactivity (PSR sort gate)": "low polyreactivity"
  }
]

Value of polyreactivity (PSR sort gate) reported for the sequence QVQLVESGGGLVQAGGSLRLSCAASGRIFRVYAMGWYSQAPGKERELVASISSGGSTNYADSVKGRFTISRDNANNTVYLQMNSLKPEDTAVYYCAADRSGSFYKLDYWGQGTHVTVSS is low polyreactivity

// sample QVQLVESGGGLVQAGGSLRLSCAASGRTFGHNAMGWYRQAPGKERELVAAISASGSNTYYADSVKGRFTISRDNAKNTVYLQMNSLKPEDTAVYYCAKQVYRTGQQSRYDYWGQGTQVTVSS , its polyreactivity (PSR sort gate) was low polyreactivity

Recorded polyreactivity (PSR sort gate) (sequence QVQLVESGGGVVQAGGRLRLSCAASGRILPFYAMGWYRQETGKERELVPGITTGTSTTYADSVNGRFTISRDNAKNTVYFQMHSLKPEDTAVYYCNTLVVPYTDFNTSYNVDYWGQGTQVTVSS ): low polyreactivity

polyreactivity (PSR sort gate) measured on QVQLVESGGGLVQAGGSLRLSCAASGITFGRNAMGWYRQAPGKERELVAAISRGGSTNYADSVKGRFTISRDNAKNTVYLQMNSLKPEDTAVYYCAAQYKYRRYPKVAFEYWGQGTQVTVSS = high polyreactivity

Lookup result for QVQLVESGGGLVQAGGSLRLSCAASGRIFAWYAMGWYRQAPGKERELVAAISDSGRSTYYADSVKGRFTISRDNAKNTVYLQMNSLKPEDNAVYYCAADQVVYSAYWCDHYDYWGQGTQVTVSS ; measured polyreactivity (PSR sort gate): low polyreactivity

Query QVQLVESGGGLVQAGGSLRLSCAASGLIFRIYAMGWYRQAPGKETELVAAISNSGGYTYYADSVKGRFTISRDNAKNTVYLQMNSLKPEDTAVYYCAAELRLWPWRRFDYWGQGTQVTVSS yields polyreactivity (PSR sort gate) of high polyreactivity

* * *

assay: yeast display, Sf9 membrane polyspecificity reagent, FACS + sequencing; frameworks hold sequencing errors
quantity: polyreactivity (PSR sort gate)

[
  {
    "sequence": "QVQLLESGGGLVQAGGSLRLSCAASGTNFDYYLMGWYRQAPGKERELVAAISWSGASTYYADSVKGRFTISRDNAKNTVYLQMNSLKPEDSAVYYCAADYCVKTLIDYDYWGEGTQVTVSS",
    "polyreactivity (PSR sort gate)": "low polyreactivity"
  },
  {
    "sequence": "QVQLVDSGGGLVQAGGSLRLSCAASGFTFYLNTMGWYRQAPGKERELVAAIDLSDGTTYYADSVKGRFTISRDNAKNTVYLQMNSLKPEDTAVYYCAAESYEEWTSSGLDWTDDYWGQGTQVTVSS",
    "polyreactivity (PSR sort gate)": "high polyreactivity"
  },
  {
    "sequence": "HVQLLESGGGLVQAGGSLRLSCAASGFTFRSYAMGWYRQAPGKERELVAAISGSGGSTYYADSVKGRFTISRDNAKNTVYLQMNSLKPEVTAVYYCAARRSKNSALGGRVSIGDYWGQGTQVTVSS",
    "polyreactivity (PSR sort gate)": "high polyreactivity"
  },
  {
    "sequence": "QVQLLESGGGLVQAGGSLRLSCAASGRIFSAYAMGWSRQAPGTERELVAAISWSGGSTYYADSVKGRFTISRDNAKNTVYLQMNSLKPEDTAVYYCAADYFYTSWYQHDYWGQGTQVTVSS",
    "polyreactivity (PSR sort gate)": "low polyreactivity"
  },
  {
    "sequence": "QVQLVESGGGLVQAGGSLRLSCAPCGIIFTDYAMGWYRQAPGKERELVAAISSGGGSTYYADSVKGRFTISRDNAKNTVYLQMNSLKPEDTAVYYCNARSPYYSYLLHAYRVFDYWGQGTQVNVSS",
    "polyreactivity (PSR sort gate)": "high polyreactivity"
  },
  {
    "sequence": "QVQLVESGGGLVQAGGSLRLSCAASGSTFYGNAMGRYRQAPGKEWELVAAISWSGGSTYYADSVKGRFTISRDNAKNTVYLQMNSLKPEDTAVYYCNADGSDRVWYDGYDYWGQGTQVTVSS",
    "polyreactivity (PSR sort gate)": "low polyreactivity"
  },
  {
    "sequence": "QVQLVESGGGLFQAGGSLRLSCAASGRIFKYAMGWYRQAPGKERELVAAISSSGGRTYYADSVKGRFTISRDNAKNTVYLQMNSLKPEDTAVYYCAATSYNTQSAFYYWGQGTQVTVSS",
    "polyreactivity (PSR sort gate)": "high polyreactivity"
  },
  {
    "sequence": "QVQLVESGGGLVHAGGSLRLSCAASGRTFKYYGMGWYREAPGKERELVATISRSSSRTYYADSVKGRFTISRDNAKNTVYLQMNSLKPEDTAVYYCAADRWGARRKQYDENGYWGQGTQVTVSS",
    "polyreactivity (PSR sort gate)": "high polyreactivity"
  }
]

Measured polyreactivity (PSR sort gate) of QVQLVESGGGLVQAGGSLRLSCAASGSTFVPNAMGWYRQAPGKEREFVAAIRVSGDNTYYADSVKGRFTISRDNAKNTVYLQMNSLKPEDTGVYYCAATGTVLGSVDYWGQGTQVTVSS : low polyreactivity

Sample QVQLVESGGGLVQAGGSLRLSCAASGRILSGNAMGWYRQAPGKERELVAAITNAGITKYADSVKGRFTISRDNAKNTVYLQMNSLKPEDTAVYYCATDRYAYKLYDYWGQGTQVTVSS ; polyreactivity (PSR sort gate) observed: low polyreactivity

Measured polyreactivity (PSR sort gate), HVQLVESGGGLVQAGGSLRLICAASGRSFSPYAMGWYRLAPGKERELVAAITNGDSTNYADSVKGRFTISRDNAKNTVYLLMNSLKPEDTAVYYCNAAAEISSFDYDYWGQGTQVTVSS : low polyreactivity
